Assay: Metabolic stability in human liver microsomes assessed as half life in presence of NADPH measured upto 60 mins in presence of 2.5 mM ABT cytochrome P450 inhibitor by LC-MS/MS analysis
Assay type: ADME, Microsome
Details: with ABT (cytochrome P450 inhibitor)
Experimental readout: half-life (min)

O=C(CCCCCCSC(=O)c1ccccc1)Nc1nc(-c2ccc(F)cc2)cs1 | 5.78
CNC(=O)SCCCCCCC(=O)Nc1nc(-c2ccc(F)cc2)cs1 | 68.3
COC(=O)SCCCCCCC(=O)Nc1nc(-c2ccc(F)cc2)cs1 | 0.85
CCC(=O)SCCCCCCC(=O)Nc1nc(-c2ccc(F)cc2)cs1 | 0.56
COP(=O)(OC)SCCCCCCC(=O)Nc1nc(-c2ccc(F)cc2)cs1 | 44
CC(=O)NCSCCCCCCC(=O)Nc1nc(-c2ccc(F)cc2)cs1 | 65.8
O=C(CCCCCCSP(=O)(c1ccccc1)c1ccccc1)Nc1nc(-c2ccc(F)cc2)cs1 | 34.2
CCOP(=O)(OCC)SCCCCCCC(=O)Nc1nc(-c2ccc(F)cc2)cs1 | 24.5
CN(C)C(=O)SCCCCCCC(=O)Nc1nc(-c2ccc(F)cc2)cs1 | 114
